Data credit: ChEMBL document CHEMBL1141591

target_or_test_system: P2Y purinoceptor 6 (Homo sapiens)
Sequence (Q15077 whole entry): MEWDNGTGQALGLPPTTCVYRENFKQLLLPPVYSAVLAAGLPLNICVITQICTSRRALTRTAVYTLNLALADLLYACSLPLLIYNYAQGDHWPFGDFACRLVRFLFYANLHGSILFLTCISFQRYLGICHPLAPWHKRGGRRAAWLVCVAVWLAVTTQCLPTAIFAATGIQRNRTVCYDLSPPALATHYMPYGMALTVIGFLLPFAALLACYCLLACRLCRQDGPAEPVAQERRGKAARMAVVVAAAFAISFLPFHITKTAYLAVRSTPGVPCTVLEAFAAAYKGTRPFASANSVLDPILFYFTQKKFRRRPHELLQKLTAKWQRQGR
test: Agonist activity at P2Y6 receptor expressed in human 1321 cells at 100 uM by calcium mobilization assay
Type: functional, cell-based
Activity calls are given as the source filed them. No cut-off for these calls is given here.
property_name: Activity

[
  {
    "compound": "Nc1ccn([C@@H]2O[C@H](COP(=O)(O)OP(=O)(O)OP(=O)(O)OP(=O)(O)OC[C@@H]3O[C@H](n4ccc(=O)[nH]c4=O)[C@H]4OC(Cc5ccccc5)O[C@H]43)[C@@H](O)[C@H]2O)c(=O)n1 (stereo not given in full)",
    "Activity": "inactive"
  },
  {
    "compound": "O=C(Nc1ccccc1)Nc1ncnc2c1ncn2[C@@H]1O[C@H](COP(=O)(O)OP(=O)(O)O)[C@H]2O[C@@H](Cc3ccccc3)O[C@H]21",
    "Activity": "> 5%"
  },
  {
    "compound": "CCCCCCNC(=O)Nc1ncnc2c1ncn2[C@@H]1O[C@H](COP(=O)(O)O)[C@H]2OC(Cc3ccccc3)O[C@H]21 (stereo not given in full)",
    "Activity": "inactive"
  },
  {
    "compound": "O=C(O[C@@H]1[C@H](OC(=O)c2ccccc2)[C@@H](n2ccc(=O)[nH]c2=O)O[C@H]1COP(=O)(O)OP(=O)(O)OP(=O)(O)OP(=O)(O)OC[C@H]1O[C@@H](n2ccc(=O)[nH]c2=O)[C@H](OC(=O)c2ccccc2)[C@@H]1OC(=O)c1ccccc1)c1ccccc1",
    "Activity": "inactive"
  }
]

From here, focus on the item given below.
Entry Nc1ncnc2c1ncn2[C@@H]1O[C@H](COP(=O)(O)O)[C@H]2OC(C#Cc3ccccc3)O[C@H]21 (stereo not given in full) — recorded Activity = inactive
